Numbers sourced from ChEMBL document CHEMBL1153828.

target: Fibroblast growth factor receptor 1 (Mus musculus, UniProt P16092); assay: Inhibition of acidic FGF-stimulated FGFR1 tyrosine autophosphorylation in mouse NIH/3T3 cells by immunoblotting
Sequence (P16092 whole entry): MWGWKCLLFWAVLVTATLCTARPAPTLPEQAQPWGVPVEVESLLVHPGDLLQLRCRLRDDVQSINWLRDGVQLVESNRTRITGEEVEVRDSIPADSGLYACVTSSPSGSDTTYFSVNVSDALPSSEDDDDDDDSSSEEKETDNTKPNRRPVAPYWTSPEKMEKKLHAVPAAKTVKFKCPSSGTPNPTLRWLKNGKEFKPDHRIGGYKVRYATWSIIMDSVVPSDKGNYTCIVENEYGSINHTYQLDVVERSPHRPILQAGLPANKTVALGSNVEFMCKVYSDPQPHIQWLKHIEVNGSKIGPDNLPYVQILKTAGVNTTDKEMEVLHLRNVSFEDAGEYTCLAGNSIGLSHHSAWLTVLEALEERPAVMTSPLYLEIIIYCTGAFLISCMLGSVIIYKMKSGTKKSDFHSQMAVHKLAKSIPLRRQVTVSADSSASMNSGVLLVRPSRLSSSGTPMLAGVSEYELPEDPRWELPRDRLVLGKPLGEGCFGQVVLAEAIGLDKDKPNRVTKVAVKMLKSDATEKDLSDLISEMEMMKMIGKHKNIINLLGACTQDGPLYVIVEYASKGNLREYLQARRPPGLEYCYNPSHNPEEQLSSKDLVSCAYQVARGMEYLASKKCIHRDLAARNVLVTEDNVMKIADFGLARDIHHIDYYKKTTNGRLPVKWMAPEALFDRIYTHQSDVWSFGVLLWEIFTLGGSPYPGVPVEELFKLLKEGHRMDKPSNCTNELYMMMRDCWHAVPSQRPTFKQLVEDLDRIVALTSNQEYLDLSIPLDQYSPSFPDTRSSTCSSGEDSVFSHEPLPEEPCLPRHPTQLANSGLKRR
QUANTITY_KIND: IC50 (µM)
Numbers only, in µM.

SMILES_ENTRY: Cc1c[nH]c(/C=C2\C(=O)Nc3ccccc32)c1CCC(=O)O
VALUE_MEASURED: 10

// below: IC50 requested for another compound
IN: Fill in the blank: the reported IC50 of O=CN1CCN(c2ccc(/C=C3\C(=O)Nc4ccccc43)cc2)CC1 is ____.
OUT: 20
